target: OTU domain-containing protein 3 (Homo sapiens) (UniProt Q5T2D3)
Sequence (Q5T2D3 whole entry, looked up, the tested form may be a part): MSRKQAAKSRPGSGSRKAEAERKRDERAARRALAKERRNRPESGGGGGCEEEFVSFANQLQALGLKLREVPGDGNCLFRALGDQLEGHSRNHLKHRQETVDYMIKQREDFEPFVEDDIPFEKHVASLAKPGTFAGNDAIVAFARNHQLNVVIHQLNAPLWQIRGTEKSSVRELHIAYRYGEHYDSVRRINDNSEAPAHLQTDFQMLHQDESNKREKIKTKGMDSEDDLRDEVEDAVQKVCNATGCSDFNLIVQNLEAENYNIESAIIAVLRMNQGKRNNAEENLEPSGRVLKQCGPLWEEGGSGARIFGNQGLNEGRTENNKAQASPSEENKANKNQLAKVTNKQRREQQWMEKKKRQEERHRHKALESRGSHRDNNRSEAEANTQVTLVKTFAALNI
test_method_notes: Validation of screening hits, potency titration, in vitro enzymatic, OTU domain-containing protein 3 DUB inhibitors (AID 1645868)
experimental_setup: purified OTUD3, ubiquitin-rhodamine cleavage fluorescence, 2 h
Activity calls are given as the source filed them.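 The calls were made as follows: active = maximal percent inhibition of the deubiquitinase OTUD3 of at least 30% across the tested doses; inactive = the rest.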
Outcomes: active, inactive

[
  {
    "compound": "COc1ccccc1-c1nc2c3c(ncn2n1)Oc1c(c(C)nn1-c1ccccc1)C3c1cccnc1 (stereo not given)",
    "label": "inactive"
  },
  {
    "compound": "CCn1ccc2c(cc(C(=O)Nc3cccc(OC)c3)n2C)c1=O",
    "label": "inactive"
  },
  {
    "compound": "COc1ccc2nc(NC(=O)C(CC(C)C)NS(=O)(=O)c3ccc4c(c3)CCN4C(C)=O)sc2c1 (stereo not given)",
    "label": "active"
  },
  {
    "compound": "O=C(Cn1c(=O)n(CCCC(=O)N2CC=C(c3ccccc3)CC2)c(=O)c2ccccc21)NCCC1=CCCCC1",
    "label": "inactive"
  },
  {
    "compound": "Cc1nc(Nc2c3ccccc3nc3ccccc23)sc1C",
    "label": "inactive"
  }
]

These data points were gathered from PubChem BioAssay AID1645868.
